Molecular target: Kir2 homotetramer channels (Mus musculus)
Sequence (P35561 whole entry): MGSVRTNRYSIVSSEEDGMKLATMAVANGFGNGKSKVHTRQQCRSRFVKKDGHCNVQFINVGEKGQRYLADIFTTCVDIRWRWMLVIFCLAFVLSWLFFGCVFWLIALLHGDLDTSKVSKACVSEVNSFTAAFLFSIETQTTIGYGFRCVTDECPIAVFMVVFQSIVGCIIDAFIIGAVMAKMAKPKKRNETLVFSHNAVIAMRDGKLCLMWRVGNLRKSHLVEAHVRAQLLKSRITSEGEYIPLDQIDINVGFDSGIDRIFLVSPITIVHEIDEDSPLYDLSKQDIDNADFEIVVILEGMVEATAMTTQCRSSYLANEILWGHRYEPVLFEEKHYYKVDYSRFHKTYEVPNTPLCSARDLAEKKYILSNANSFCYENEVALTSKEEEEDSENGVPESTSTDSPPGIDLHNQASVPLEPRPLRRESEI
Test: patch-clamp determination of ion transport activity: inhibition of Kir2 channels (Kir2.1 expressed in HEK293 cells)
Conditions: as stated in the detailed description; read-out: IC50 for inhibition of Kir 2.1 channels
Method: It has been determined that inwardly rectifying potassium (Kir) channels are regulated directly by small molecule alcohol compounds. Three-dimensional crystallographic analysis of Kir channels has elucidated atomic details of binding pocket interactions with 2-methyl-2,4-pentanediol (MPD). MPD inhibits Kir2 channel activity and activates Kir3 channel activity. […] The effect of MPD on Kir2 channel activity was analyzed further. […]
pIC50: −log10 of the molar value.
readout.name: pIC50

-- ask Endpoint output: pIC50 of CC(O)CC(C)(C)O (racemic) [MPD, 2-methyl-2,4-pentanediol] . Value?
-- reply ~1.00
